- Test system: HACAT
- protocol: qHTS assay to identify novel small-molecules to repurpose for Merkel cell carcinoma treatment (AID 1296009); further: nearly all actives have a fitted effect of over 60% in size
- statedConditions: MCC and control cell lines, CellTiter-Glo viability, 72 h; at 44.8 µM (top of the series) unless noted
Records with an inconclusive call do not appear. Activity calls are given as the source filed them. The call rests on the fitted dose curve; in most records, active means well fitted inhibition curve with a large enough effect; inconclusive means small, poorly fitted or top-dose-only effect; inactive means flat fitted curve, though single readings scatter.
assayEndpoint: outcome

// below: answered compounds
{"compound": "CC(=O)/C=C/C1(O)C(C)(C)CC(O)CC1(C)O (stereo not given)", "assayedTarget": "HACAT", "assayEndpoint": "outcome", "result": "inactive"}
{"compound": "COc1c(C)c(OCC(O)C(C)(C)O)cc2c1CNC2=O (stereo not given)", "assayedTarget": "HACAT", "assayEndpoint": "outcome", "result": "inactive"}
{"compound": "COc1cc(C2CC(=O)Nc3c2cc(Br)c2ccccc32)cc(OC)c1OC (stereo not given)", "assayedTarget": "HACAT", "assayEndpoint": "outcome", "result": "inactive"}
{"compound": "Cc1c(C)c(NCC(=O)N(C)C2CCN(Cc3ccc(C(N)=O)cc3)CC2)c(C)c(C)c1N", "assayedTarget": "HACAT", "assayEndpoint": "outcome", "result": "inactive"}
{"compound": "C=C1CC2C(C)(CCC(=O)O)C(C(C)(C)O)CCC2(C)C2(C(=O)OC)C(=O)C(C)(O)C(=O)C12C (stereo not given)", "assayedTarget": "HACAT", "assayEndpoint": "outcome", "result": "inactive [at 17.4 µM]"}
{"compound": "CC[C@H]1OC(=O)[C@H](C)C(=O)[C@H](C)[C@@H](OC2O[C@H](C)C[C@H](N(C)C)[C@H]2O)[C@@H](C)C[C@@H](C)C(=O)/C=C/[C@]1(C)O (stereo not given in full)", "assayedTarget": "HACAT", "assayEndpoint": "outcome", "result": "inactive [at 17.4 µM]"}
{"compound": "COc1ccc(S(=O)(=O)Nc2nc(-c3cccc([N+](=O)[O-])c3)cs2)cc1OC", "assayedTarget": "HACAT", "assayEndpoint": "outcome", "result": "inactive"}
{"compound": "COc1cc(C2OCC3(O)C(c4ccc(O[C@@H]5O[C@H](CO)[C@@H](O)[C@H](O)[C@H]5O)c(OC)c4)OCC23O)ccc1O (stereo not given in full)", "assayedTarget": "HACAT", "assayEndpoint": "outcome", "result": "inactive [at 17.4 µM]"}

Each compound below has a reported value. Please supply its outcome.
1. CSCC1OC(n2cnc3c(=O)[nH]cnc32)C(O)C1O (stereo not given)
2. CCC1=C(C)C(=O)C(C)CC12C(=O)CCC2C(=O)O (stereo not given)
3. CC1(C)C(=O)N2c3ccccc3C(O)(CC(C(=O)O)n3cnc4ccccc4c3=O)C2N1O (stereo not given)

Reply:
["inactive", "inactive", "inactive [at 17.4 µM]"]

Each compound below has a reported value. Please supply its outcome.
1. O=C(O)/C=C/c1ccc2occc2c1O[C@@H]1O[C@H](CO)[C@@H](O)[C@H](O)[C@H]1O
2. CC(C)=CCc1cc(O[C@@H]2O[C@H](CO[C@@H]3OC[C@](O)(CO)[C@H]3O)[C@@H](O)[C@H](O)[C@H]2O)ccc1O
3. COc1cc(/C=C/c2ccccc2)c(C(=O)O)c(O)c1CC=C(C)C

Reply:
1. inactive
2. inactive [at 17.4 µM]
3. inactive
